As shown below, each of these compounds has a reported pIC50 value.
test: Growth inhibition of human HCT116 cells measured after 48 hrs by MTS assay; format: functional, cell-based; details: HCT-116, 48 h
Value format note: pIC50 is -log10 of concentration (mol/L); just state the number.

Query: Return the recorded pIC50 value; entry: `COc1cc2occ(-c3cc(OC)c(OC)c(OC)c3)c(=O)c2cc1OC`
Result: 5.55

Query: Return the recorded pIC50 value; entry: `COc1cc2occ(-c3cc4c(c(OC)c3OC)OCO4)c(=O)c2cc1OC`
Result: 5.47

Query: Return the recorded pIC50 value; entry: `COc1cc2occ(-c3cc(OC)c4c(c3OC)OCO4)c(=O)c2cc1OC`
Result: 6.16

Query: Return the recorded pIC50 value; entry: COc1ccc(/C=C\c2cc(OC)c(OC)c(OC)c2)cc1OP(=O)([O-])[O-].[Na+].[Na+] [FOSBRETABULIN DISODIUM]
Result: 8.80

###

test system: Paracentrotus lividus; assay: Antimitotic activity against sea urchin Paracentrotus lividus L embryo assessed as induction of tuberculate egg formation; format: functional
Measure: EC (µM)
Give the value, in units of µM, as a plain number.

COc1ccc(-c2coc3cc(OC)c(OC)cc3c2=O)cc1
1
COc1ccc(-c2coc3cc(OC)c(O)cc3c2=O)cc1
4
COc1cc2occ(-c3cc(OC)c4c(c3)OCO4)c(=O)c2cc1OC
1
COc1cc2occ(-c3cc(OC)c(OC)c(OC)c3)c(=O)c2cc1OC
1

Now, please, on to the next molecule.
Query: Return the recorded EC value; entry: `COc1cc2occ(-c3cc4c(c(OC)c3OC)OCO4)c(=O)c2cc1OC`
Result: 5

###

As shown below, each of these molecules has a reported pIC50 value.
assay: Growth inhibition of human A549 cells by MTS assay; format: functional, cell-based
pIC50: −log10 of the molar value.

Below, each entry is followed by its recorded pIC50 result.
COc1ccc(-c2coc3cc(OC)c(OC)cc3c2=O)cc1OC
< 5.00
COc1ccc(-c2coc3cc(OC)c(OC)cc3c2=O)cc1
< 5.00
COc1cc2occ(-c3cc(OC)c(OC)c(OC)c3OC)c(=O)c2cc1OC
< 5.00
COc1cc2occ(-c3cc(OC)c(OC)c(OC)c3)c(=O)c2cc1OC
< 5.00
COc1ccc(/C=C\c2cc(OC)c(OC)c(OC)c2)cc1OP(=O)([O-])[O-].[Na+].[Na+] [FOSBRETABULIN DISODIUM]
7.63
COc1ccc(-c2coc3c(OC)c4c(c(OC)c3c2=O)OCO4)cc1OC
< 5.00

Query: Return the recorded pIC50 value; entry: `COc1cc2occ(-c3cc(OC)c4c(c3)OCO4)c(=O)c2cc1OC`
Result: < 5.00

Query: Return the recorded pIC50 value; entry: `COc1cccc(-c2coc3cc(OC)c(OC)cc3c2=O)c1`
Result: < 5.00

Query: Return the recorded pIC50 value; entry: `COc1cc2occ(-c3cc4c(c(OC)c3OC)OCO4)c(=O)c2cc1OC`
Result: < 5.00

Query: Return the recorded pIC50 value; entry: `COc1cc2occ(-c3cc(OC)c4c(c3OC)OCO4)c(=O)c2cc1OC`
Result: 5.96

###

experiment: Growth inhibition of human PC3 cells measured after 48 hrs by MTS assay; assay type: functional, cell-based; conditions: PC-3, 48 h
As shown below, each of these molecules has a reported IC50 value.
Give the value, in units of µM, as a plain number.

COc1cc2occ(-c3cc(OC)c(OC)c(OC)c3)c(=O)c2cc1OC
5.1

Query: Return the recorded IC50 value; entry: COc1ccc(/C=C\c2cc(OC)c(OC)c(OC)c2)cc1OP(=O)([O-])[O-].[Na+].[Na+] [FOSBRETABULIN DISODIUM]
Result: 0.0062

Query: Return the recorded IC50 value; entry: `COc1cc2occ(-c3cc4c(c(OC)c3OC)OCO4)c(=O)c2cc1OC`
Result: 7.3

Query: Return the recorded IC50 value; entry: `COc1cc2occ(-c3cc(OC)c4c(c3OC)OCO4)c(=O)c2cc1OC`
Result: 0.83

###

experiment: Growth inhibition of human MDA-MB-231 cells measured after 48 hrs by MTS assay; assay type: functional, cell-based; settings: MDA-MB-231, 48 h
pIC50: −log10 of the molar value.
As shown below, each of these compounds has a reported pIC50 value.

Below, each entry is followed by its recorded pIC50 result.
COc1cc2occ(-c3cc4c(c(OC)c3OC)OCO4)c(=O)c2cc1OC
5.15
COc1cc2occ(-c3cc(OC)c(OC)c(OC)c3OC)c(=O)c2cc1OC
< 5.00
COc1ccc(/C=C\c2cc(OC)c(OC)c(OC)c2)cc1OP(=O)([O-])[O-].[Na+].[Na+] [FOSBRETABULIN DISODIUM]
8.55
COc1cccc(-c2coc3cc(OC)c(OC)cc3c2=O)c1
< 5.00
COc1ccc(-c2coc3cc(OC)c(OC)cc3c2=O)cc1OC
< 5.00
COc1cc2occ(-c3cc(OC)c4c(c3)OCO4)c(=O)c2cc1OC
< 5.00

Query: Return the recorded pIC50 value; entry: COc1cc2occ(-c3cc(OC)c4c(c3OC)OCO4)c(=O)c2cc1OC [GLAZIOVIANIN A]
Result: 5.66

Query: Return the recorded pIC50 value; entry: `COc1ccc(-c2coc3c(OC)c4c(c(OC)c3c2=O)OCO4)cc1OC`
Result: < 5.00

Query: Return the recorded pIC50 value; entry: `COc1ccc(-c2coc3cc(OC)c(OC)cc3c2=O)cc1`
Result: < 5.00

Query: Return the recorded pIC50 value; entry: `COc1cc2occ(-c3cc(OC)c(OC)c(OC)c3)c(=O)c2cc1OC`
Result: < 5.00

###

assay: Growth inhibition of human A375 cells measured after 48 hrs by MTS assay; format: functional, cell-based; settings: A-375, 48 h
Decide using IC50 alone. Strictly below 2 µM: y. Equal to or above 2 µM: n.

Before answering, review these 6 worked examples.
COc1cc2occ(-c3cc(OC)c4c(c3)OCO4)c(=O)c2cc1OC
n
COc1cc2occ(-c3cc(OC)c(OC)c(OC)c3OC)c(=O)c2cc1OC
n
COc1ccc(-c2coc3cc(OC)c(OC)cc3c2=O)cc1OC
n
COc1cc2occ(-c3cc(OC)c(OC)c(OC)c3)c(=O)c2cc1OC
n
COc1cc2occ(-c3cc4c(c(OC)c3OC)OCO4)c(=O)c2cc1OC
y
COc1ccc(-c2coc3cc(OC)c(OC)cc3c2=O)cc1
n

Query: hey, is IC50 for COc1ccc(/C=C\c2cc(OC)c(OC)c(OC)c2)cc1OP(=O)([O-])[O-].[Na+].[Na+] [FOSBRETABULIN DISODIUM] lower than 2 µM or not?
Result: y

Query: hey, is IC50 for `COc1cccc(-c2coc3cc(OC)c(OC)cc3c2=O)c1` lower than 2 µM or not?
Result: n

Query: hey, is IC50 for `COc1cc2occ(-c3cc(OC)c4c(c3OC)OCO4)c(=O)c2cc1OC` lower than 2 µM or not?
Result: y

Query: hey, is IC50 for `COc1ccc(-c2coc3c(OC)c4c(c(OC)c3c2=O)OCO4)cc1OC` lower than 2 µM or not?
Result: n
